test system: HCC 2998; assay: NCI tumour cell line growth inhibition, 48 h
Active and inactive are the calls of the source. No stated cut-off is given here; in the data, active = GI50 up to about 1.1 µM and inactive = higher.
Metric name: GI50

- Compound: "Cc1c(OC(C)C(=O)O)ccc2c(-c3ccccc3)cc(=O)oc12 (stereo unspecified)"
  Metric name: "GI50"
  Readout value: "> 100 µM (inactive)"
- Compound: "Cc1nn(-c2ccccc2)c2c1N=C(C(=O)O)CC(c1ccccc1)=N2"
  Metric name: "GI50"
  Readout value: "> 10 µM (inactive)"
- Compound: "CC1(C)C2CCC(O)(C2)C1N (stereo unspecified)"
  Metric name: "GI50"
  Readout value: "> 100 µM (inactive)"
- Compound: "O=S(=O)(N1CCCCN(S(=O)(=O)C(F)(F)F)CCCN(S(=O)(=O)C(F)(F)F)CCCCN(S(=O)(=O)C(F)(F)F)CCCN(S(=O)(=O)C(F)(F)F)CCCCN(S(=O)(=O)C(F)(F)F)CCCN(S(=O)(=O)C(F)(F)F)CCCCN(S(=O)(=O)C(F)(F)F)CCC1)C(F)(F)F"
  Metric name: "GI50"
  Readout value: "> 31.6 µM (inactive)"
- Compound: "C/C(=N\\NC(=O)c1ccc(Cl)cc1)c1nc2cccnc2[nH]1"
  Metric name: "GI50"
  Readout value: "> 100 µM (inactive)"
- Compound: "O=C1C2C=CC(n3[nH]c(=O)n(Cc4ccccc4)c3=O)CC2C(=O)N1c1cccc(Cl)c1 (stereo unspecified)"
  Metric name: "GI50"
  Readout value: "> 100 µM (inactive)"
- Compound: "OC1CCCN(C2(c3cccs3)CCCCC2)C1 (stereo unspecified)"
  Metric name: "GI50"
  Readout value: "> 100 µM (inactive)"
- Compound: "CC1(/C=C/CCSc2ccccc2)CC(=O)C2CC1C2(C)C (stereo unspecified)"
  Metric name: "GI50"
  Readout value: "12.5 µM (inactive)"
- Compound: "COC(=O)c1cc(NC(=O)Cn2c3ccccc3c3ccccc32)cn1C"
  Metric name: "GI50"
  Readout value: "78.9 µM (inactive)"
- Compound: "O=c1c2cccnc2[s+]([O-])n1Cc1ccccc1 (stereo unspecified)"
  Metric name: "GI50"
  Readout value: "> 100 µM (inactive)"
- Compound: "Cc1cccc(Nc2cn(CCOc3ccccc3)c(=O)n(CCOc3ccccc3)c2=O)c1"
  Metric name: "GI50"
  Readout value: "> 100 µM (inactive)"

====

tested on: A549; assay: NCI tumour cell line growth inhibition, 48 h
Calls of active or inactive are those of the source. Cut-off read from the data, not from the text of the source: active = GI50 up to about 1.1 µM and inactive = higher.
Labels: Y for active, N for inactive

- Compound: "CCCCNc1nc(N)nc(Nc2ccc(Br)cc2)c1N=O"
  Assigned label: "N"
- Compound: "O=C1O[C@H](c2ccccc2)[C@@H]2CC3(CCN12)OCCO3"
  Assigned label: "N"
- Compound: "O=C1c2c(O)cc(O)cc2OC(c2ccc(O)cc2O)C1O (centres undefined)"
  Assigned label: "N"
- Compound: "S=C(NC/C(Br)=C/Br)Nc1cccc2ccccc12"
  Assigned label: "N"
- Compound: "Nc1nc(O)c2[nH]cnc2[n+]1[O-]"
  Assigned label: "N"
- Compound: "Cc1nc2cc3ccccc3cc2[nH]c1=O"
  Assigned label: "N"
- Compound: "COc1cc(C2c3c(ccc4ccccc34)C(=O)C3CCC(=O)N32)cc(OC)c1O (centres undefined)"
  Assigned label: "N"
- Compound: "C[C@]12[C@@H]3CC[C@H]1[C@@H](O)C(=O)N2CC3"
  Assigned label: "N"
- Compound: "CC1(c2cccc(N)c2)C2C(=O)NC(=O)C1C(=O)NC2=O (centres undefined)"
  Assigned label: "N"
- Compound: "C[C@H](OC(=O)/C=C/c1ccc(O)c(O)c1)[C@H](C)OC(=O)/C=C/c1ccc(O)c(O)c1"
  Assigned label: "N"
- Compound: "O=C1NC(NCc2ccc(F)cc2)=N/C1=C\\c1ccccc1Cl"
  Assigned label: "N"
- Compound: "O=C(O)CSCCc1ccccc1"
  Assigned label: "N"
- Compound: "Sc1ncc(-c2cncc(-c3cnc(S)nc3)n2)cn1"
  Assigned label: "N"
- Compound: "CC(C)(O)[C@@H]1CC[C@@]2(C)CCCC(O)C2(O)C1 (some centres undefined)"
  Assigned label: "N"
- Compound: "C[C@@H]1C[C@@H]([C@H](O)CC2CC(=O)NC(=O)C2)C(=O)[C@@H](C)C1 [CYCLOHEXIMIDE]"
  Assigned label: "Y"
- Compound: "COc1ccc(/C(C)=N/NC(N)=S)c(OC)c1"
  Assigned label: "N"
- Compound: "O=C1C(Cl)C2(CC(/C=C/c3cccs3)=NN2c2cccc(S(=O)(=O)O)c2)N1c1nc2ccccc2s1 (centres undefined)"
  Assigned label: "N"
- Compound: "O=C1CCCC/C1=C\\c1ccc([N+](=O)[O-])cc1"
  Assigned label: "N"
- Compound: "NS(=O)(=O)c1ccc(NC2=CC(=O)C(=O)c3ccccc32)cc1"
  Assigned label: "N"
- Compound: "COc1ccc(/C=N\\N2CC(=O)N3C4C=CC(CC4)N3C2=O)cc1 (centres undefined)"
  Assigned label: "N"
- Compound: "O=C(O)C1C2CC3CC2CC31 (centres undefined)"
  Assigned label: "N"
- Compound: "O=C(OCc1ccccc1)N1CCNCCNCCN(C(=O)OCc2ccccc2)CCNCC1"
  Assigned label: "N"
- Compound: "Cn1c2ccccc2c(=O)c2c(O)cc3c(c21)C=CC1(CCCCC1)O3"
  Assigned label: "N"
- Compound: "Cn1c(=O)c2nc(SCCN3CCOCC3)[nH]c2n(C)c1=S"
  Assigned label: "N"
- Compound: "CCOC(=O)c1c(NCc2ccccc2)n(-c2ccccc2)c(=S)n(-c2ccccc2)c1=O"
  Assigned label: "N"
- Compound: "Oc1[nH]c(NCc2ccc(Cl)cc2)nc2ncnc1-2"
  Assigned label: "N"
- Compound: "N#Cc1nc(C(O)c2ccccc2)oc1N (centres undefined)"
  Assigned label: "N"
- Compound: "CCC(C#N)NCc1ccc(CNC(C#N)CC)cc1 (centres undefined)"
  Assigned label: "N"
- Compound: "COc1ccccc1N1CCN(S(=O)(=O)c2ccc(Cl)cc2)C1=N"
  Assigned label: "N"
- Compound: "CC(C)C(=O)Cc1ccc2ccccc2n1"
  Assigned label: "N"
- Compound: "COc1ccc(/C(C#N)=C(/N)SCc2ccccc2Cl)cc1"
  Assigned label: "N"
- Compound: "CCN1CCCC(C#N)(c2ccccc2)CC1 (centres undefined)"
  Assigned label: "N"
- Compound: "COc1cc(Nc2nc3ccccc3nc2C(=O)O)cc(OC)c1OC"
  Assigned label: "N"
- Compound: "Clc1ccc(Oc2ccc(/N=C/c3ccc(Cl)cc3Cl)cc2Cl)cc1"
  Assigned label: "N"
- Compound: "O=c1c2cc(I)ccc2nc(-c2cccs2)n1O"
  Assigned label: "N"
- Compound: "COc1cc2cc3c4cc(OC)c(OC)cc4cc[n+]3c(C)c2cc1OC.O=C([O-])CS(=O)(=O)O"
  Assigned label: "N"
- Compound: "O=C1/C(=C/c2cccs2)N=C(c2ccccc2)N1c1nc2ccccc2s1"
  Assigned label: "N"
- Compound: "O=C(NCCCN1CCN(CCCNC(=O)c2cc(-c3ccccc3)nc3ccccc23)CC1)c1cc(-c2ccccc2)nc2ccccc12"
  Assigned label: "N"
- Compound: "Oc1cc(Br)cc2cccnc12"
  Assigned label: "N"
- Compound: "CC(C)(Oc1ccc(Cl)cc1)C(=O)N(C(=O)N1CCC(c2ccccc2)CC1)c1ccccc1"
  Assigned label: "N"
- Compound: "CC[C@H]1OC([C@H](O)C/C=C\\C#C[Si](C)(C)C)C/C=C\\C[C@H]1O[Si](C)(C)C(C)(C)C (some centres undefined)"
  Assigned label: "N"
- Compound: "Cc1cccc(Nc2cn(CCOc3ccccc3)c(=O)n(CCOc3ccccc3)c2=O)c1"
  Assigned label: "N"
- Compound: "COc1ccc2c(c1)CC[C@@H]1[C@@H]2CC[C@]2(C)C(=O)/C(=C/c3ccc(OC)c(OC)c3)C[C@@H]12"
  Assigned label: "N"
- Compound: "CCOC(=O)c1cn(CC)c2ccc3c(c2c1=O)S(=O)(=O)C=C3"
  Assigned label: "N"

From: ChEMBL document CHEMBL1201862
